method-description: NCI Yeast Anticancer Drug Screen. Data for the CLN2oe strain (AID 163)
condition: S. cerevisiae CLN2oe strain, at 11.0 µM
About 79,000 compounds went through this panel and 15% of them were active in at least one assay; those are over-represented in the sample as a whole. Active and inactive are the calls of the source. No stated cut-off is given here; in the data, active means growth inhibition above about 70%; inactive means the rest.
Classes used: active, inactive

> print(dat)
                                   molecule  class.label
1  CC1C(NNc2ccccc2)Oc2cc3c(cc2C1c1ccccc1O)OCO3 (stereo unspecified)       active
2  CCCCCCCCNC(=O)C1=C(C)NC(C)=C(C(=O)NCCCCCCCC)C1     inactive
3                        Cc1ccc2ccc(O)cc2c1     inactive
4            CC1CCN(CCC(=O)c2ccc(Cl)cc2)CC1     inactive
5    CC(=O)N/N=C/C(C)(C)C(C)(C)/C=N/NC(C)=O     inactive
6            O=C1c2ccccc2-c2n[nH]c3cccc1c23     inactive
